So I've got a bunch of molecules here, and I need their IC50 values.
Biological target: KPC-2 (Klebsiella pneumoniae)
Construct: AmpC, TEM-1, KPC-2 or OXA-2 domain excluding signal peptide was amplified with PCR
Assay: β-Lactamase inhibitory activity (nitrocefin hydrolysis), KPC-2
Details: KPC-2 0.5 nM, 100 μM nitrocefin, pre-incubation 30° C. 10 minutes

query: Return IC50 (reported value) for this molecule: O=C(NN1CCOCC1)[C@@H]1CC[C@@H]2CN1C(=O)N2OS(=O)(=O)O (racemic)
result: 1000 to 3000 nM

query: Return IC50 (reported value) for this molecule: "NCCC(=O)NNC(=O)[C@@H]1CC[C@@H]2CN1C(=O)N2OS(=O)(=O)O"
result: 1000 to 3000 nM

query: Return IC50 (reported value) for this molecule: "CC(=O)NNC(=O)[C@@H]1CC[C@@H]2CN1C(=O)N2OS(=O)(=O)O"
result: 100 to 1000 nM

query: Return IC50 (reported value) for this molecule: "O=C(NOC[C@@H]1CCCNC1)[C@@H]1CC[C@@H]2CN1C(=O)N2OS(=O)(=O)O"
result: 100 to 1000 nM

query: Return IC50 (reported value) for this molecule: "CC(C)(C)OC(=O)NCCONC(=O)[C@@H]1CC[C@@H]2CN1C(=O)N2OS(=O)(=O)O"
result: 100 to 1000 nM

query: Return IC50 (reported value) for this molecule: "O=C(NOCCn1ccnc1)[C@@H]1CC[C@@H]2CN1C(=O)N2OS(=O)(=O)O"
result: 100 to 1000 nM

query: Return IC50 (reported value) for this molecule: "O=C(NOCCN1CCNC1=O)[C@@H]1CC[C@@H]2CN1C(=O)N2OS(=O)(=O)O"
result: 100 to 1000 nM

query: Return IC50 (reported value) for this molecule: "O=C(NNC(=O)N1CCOCC1)[C@@H]1CC[C@@H]2CN1C(=O)N2OS(=O)(=O)O"
result: 100 to 1000 nM

query: Return IC50 (reported value) for this molecule: "O=C1CC[C@H](C(=O)NNC(=O)[C@@H]2CC[C@@H]3CN2C(=O)N3OS(=O)(=O)O)N1"
result: 100 to 1000 nM

query: Return IC50 (reported value) for this molecule: "O=C(NNC(=O)[C@@H]1CC[C@@H]2CN1C(=O)N2OS(=O)(=O)O)[C@@H]1CCCN1"
result: 100 to 1000 nM

query: Return IC50 (reported value) for this molecule: "NNC(=O)[C@@H]1CC[C@@H]2CN1C(=O)N2OS(=O)(=O)O"
result: 100 to 1000 nM

query: Return IC50 (reported value) for this molecule: "CN(C)CCONC(=O)[C@@H]1CC[C@@H]2CN1C(=O)N2OS(=O)(=O)O"
result: 1000 to 3000 nM

query: Return IC50 (reported value) for this molecule: "CCOC(=O)NNC(=O)[C@@H]1CC[C@@H]2CN1C(=O)N2OS(=O)(=O)O"
result: 100 to 1000 nM

query: Return IC50 (reported value) for this molecule: "O=C(NOC[C@H]1CCCN1)[C@@H]1CC[C@@H]2CN1C(=O)N2OS(=O)(=O)O"
result: 100 to 1000 nM

query: Return IC50 (reported value) for this molecule: CN(NC(=O)[C@@H]1CC[C@@H]2CN1C(=O)N2OS(=O)(=O)O)C(=O)OC(C)(C)C (racemic)
result: 100 to 1000 nM

query: Return IC50 (reported value) for this molecule: "O=C(NOCCN1CCCC1=O)[C@@H]1CC[C@@H]2CN1C(=O)N2OS(=O)(=O)O"
result: 100 to 1000 nM

====

Target: KPC-2 (Klebsiella pneumoniae, UniProt Q9F663)
Construct: AmpC, TEM-1, KPC-2 or OXA-2 domain excluding signal peptide was amplified with PCR
Sequence (Q9F663 25-293, looked up): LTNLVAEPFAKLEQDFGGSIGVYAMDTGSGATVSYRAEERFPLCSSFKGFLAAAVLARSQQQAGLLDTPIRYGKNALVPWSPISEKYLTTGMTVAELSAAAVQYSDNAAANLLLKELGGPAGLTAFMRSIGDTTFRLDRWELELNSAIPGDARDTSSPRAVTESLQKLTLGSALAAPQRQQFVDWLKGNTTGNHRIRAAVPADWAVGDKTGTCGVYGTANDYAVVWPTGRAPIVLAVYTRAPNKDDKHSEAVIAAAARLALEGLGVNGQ
Assay: β-Lactamase inhibitory activity (nitrocefin hydrolysis), KPC-2
Settings: KPC-2 0.5 nM, 100 μM nitrocefin, pre-incubation 30° C. 10 minutes
pIC50: −log10 of the molar value.
So I've got a bunch of compounds here, and I need their pIC50 values.

query: Write down the reported pIC50 (system: KPC-2 (Klebsiella pneumoniae, UniProt Q9F663)) of "CCCNCCONC(=O)[C@@H]1CC[C@@H]2CN1C(=O)N2OS(=O)(=O)O"
result: 6.00 to 7.00

query: Write down the reported pIC50 (system: KPC-2 (Klebsiella pneumoniae, UniProt Q9F663)) of "O=C(NNC(=O)[C@@H]1CC[C@@H]2CN1C(=O)N2OS(=O)(=O)O)c1cocn1"
result: > 7.00

query: Write down the reported pIC50 (system: KPC-2 (Klebsiella pneumoniae, UniProt Q9F663)) of "CCNCCONC(=O)[C@@H]1CC[C@@H]2CN1C(=O)N2OS(=O)(=O)O"
result: 6.00 to 7.00

query: Write down the reported pIC50 (system: KPC-2 (Klebsiella pneumoniae, UniProt Q9F663)) of "O=C(NNC(=O)[C@@H]1CC[C@@H]2CN1C(=O)N2OS(=O)(=O)O)C1CCOCC1"
result: 6.00 to 7.00

query: Write down the reported pIC50 (system: KPC-2 (Klebsiella pneumoniae, UniProt Q9F663)) of "O=C(NNC(=O)[C@@H]1CC[C@@H]2CN1C(=O)N2OS(=O)(=O)O)[C@@H]1C[C@H](CC2CC2)CCN1"
result: 5.00 to 5.52

query: Write down the reported pIC50 (system: KPC-2 (Klebsiella pneumoniae, UniProt Q9F663)) of "O=C(NOCC(=O)N1CCNCC1)[C@@H]1CC[C@@H]2CN1C(=O)N2OS(=O)(=O)O"
result: 6.00 to 7.00

query: Write down the reported pIC50 (system: KPC-2 (Klebsiella pneumoniae, UniProt Q9F663)) of "O=C(NOC1CNC1)[C@@H]1CC[C@@H]2CN1C(=O)N2OS(=O)(=O)O"
result: 5.52 to 6.00

query: Write down the reported pIC50 (system: KPC-2 (Klebsiella pneumoniae, UniProt Q9F663)) of "O=C(NOC[C@@H]1CCCN1)[C@@H]1CC[C@@H]2CN1C(=O)N2OS(=O)(=O)O"
result: 6.00 to 7.00

====

Biological target: OXA-2 (Escherichia coli)
Construct: AmpC, TEM-1, KPC-2 or OXA-2 domain excluding signal peptide was amplified with PCR; made in house; host or cells: Escherichia coli BL21 (DE3), pET-28b(+)
Sequence (P0A1V9 22-275): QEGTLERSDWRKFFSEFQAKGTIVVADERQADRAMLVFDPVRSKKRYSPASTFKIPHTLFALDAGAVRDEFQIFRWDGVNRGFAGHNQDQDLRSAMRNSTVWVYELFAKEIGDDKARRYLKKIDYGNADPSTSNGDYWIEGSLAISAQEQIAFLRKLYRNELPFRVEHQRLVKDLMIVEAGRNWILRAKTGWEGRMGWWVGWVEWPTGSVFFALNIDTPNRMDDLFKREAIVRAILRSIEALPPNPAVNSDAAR
Assay: biochemical
Set-up: species or system P. aeruginosa
Conditions: OXA-2 2 nM, 100 μM nitrocefin, pre-incubation 30° C. 10 minutes; read-out: β-Lactamase inhibitory activity OXA-2 (IC50)
pIC50: −log10 of the molar value.
So I've got a bunch of molecules here, and I need their pIC50 values.

query: Return pIC50 (reported value) for this molecule: "Nc1ccc(C(=O)NNC(=O)[C@@H]2CC[C@@H]3CN2C(=O)N3OS(=O)(=O)O)cc1"
result: 5.00 to 5.52

query: Return pIC50 (reported value) for this molecule: "O=C(NOC[C@@H]1CCCNC1)[C@@H]1CC[C@@H]2CN1C(=O)N2OS(=O)(=O)O"
result: 6.00 to 7.00

query: Return pIC50 (reported value) for this molecule: "O=C(NNC(=O)[C@@H]1CC[C@@H]2CN1C(=O)N2OS(=O)(=O)O)[C@H]1CCCN1"
result: 5.52 to 6.00

query: Return pIC50 (reported value) for this molecule: "C[C@H](N)CONC(=O)[C@@H]1CC[C@@H]2CN1C(=O)N2OS(=O)(=O)O"
result: 5.52 to 6.00

====

So I've got a bunch of molecules here, and I need their IC50 values.
Molecular target: AmpC (Pseudomonas aeruginosa, UniProt P24735)
Construct: AmpC, TEM-1, KPC-2 or OXA-2 domain excluding signal peptide was amplified with PCR; made in house; host or cells: Escherichia coli BL21 (DE3), pET-28b(+)
Sequence (P24735 27-397): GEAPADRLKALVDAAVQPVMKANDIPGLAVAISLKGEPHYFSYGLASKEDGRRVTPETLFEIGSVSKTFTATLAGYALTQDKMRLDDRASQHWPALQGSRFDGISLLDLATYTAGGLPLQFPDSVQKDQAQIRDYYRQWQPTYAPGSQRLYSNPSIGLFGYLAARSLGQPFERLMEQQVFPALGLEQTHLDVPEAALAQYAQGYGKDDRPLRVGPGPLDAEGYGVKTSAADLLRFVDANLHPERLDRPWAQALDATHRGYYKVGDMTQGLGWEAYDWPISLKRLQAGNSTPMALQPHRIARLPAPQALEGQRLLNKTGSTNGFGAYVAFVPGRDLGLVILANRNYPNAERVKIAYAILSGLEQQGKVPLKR
Assay: biochemical

query: Return IC50 (reported value) for this molecule: "O=C([C@@H]1CC[C@@H]2CN1C(=O)N2OS(=O)(=O)O)N1CCCCO1"
result: 100 to 1000 nM

query: Return IC50 (reported value) for this molecule: "O=C(NOC[C@@H]1CCCN1)[C@@H]1CC[C@@H]2CN1C(=O)N2OS(=O)(=O)O"
result: 100 to 1000 nM

query: Return IC50 (reported value) for this molecule: "O=C(NOCCN1CCCC1=O)[C@@H]1CC[C@@H]2CN1C(=O)N2OS(=O)(=O)O"
result: < 100 nM

query: Return IC50 (reported value) for this molecule: "C[C@@H](CN)ONC(=O)[C@@H]1CC[C@@H]2CN1C(=O)N2OS(=O)(=O)O"
result: < 100 nM

query: Return IC50 (reported value) for this molecule: "NCCC(=O)NNC(=O)[C@@H]1CC[C@@H]2CN1C(=O)N2OS(=O)(=O)O"
result: 100 to 1000 nM

query: Return IC50 (reported value) for this molecule: "O=C(NOCC1CCC1)[C@@H]1CC[C@@H]2CN1C(=O)N2OS(=O)(=O)O"
result: < 100 nM

query: Return IC50 (reported value) for this molecule: "CN(C)C(=O)NNC(=O)[C@@H]1CC[C@@H]2CN1C(=O)N2OS(=O)(=O)O"
result: 100 to 1000 nM
